# TEST SYSTEM: human 5HT7 receptor (Homo sapiens, UniProt P34969)
# Construct: purchased BioSignal Drug Discovery Technology, Montreal, Canada; host or cells: CHO cells (stably transfected), membranes
# Sequence (P34969 whole entry): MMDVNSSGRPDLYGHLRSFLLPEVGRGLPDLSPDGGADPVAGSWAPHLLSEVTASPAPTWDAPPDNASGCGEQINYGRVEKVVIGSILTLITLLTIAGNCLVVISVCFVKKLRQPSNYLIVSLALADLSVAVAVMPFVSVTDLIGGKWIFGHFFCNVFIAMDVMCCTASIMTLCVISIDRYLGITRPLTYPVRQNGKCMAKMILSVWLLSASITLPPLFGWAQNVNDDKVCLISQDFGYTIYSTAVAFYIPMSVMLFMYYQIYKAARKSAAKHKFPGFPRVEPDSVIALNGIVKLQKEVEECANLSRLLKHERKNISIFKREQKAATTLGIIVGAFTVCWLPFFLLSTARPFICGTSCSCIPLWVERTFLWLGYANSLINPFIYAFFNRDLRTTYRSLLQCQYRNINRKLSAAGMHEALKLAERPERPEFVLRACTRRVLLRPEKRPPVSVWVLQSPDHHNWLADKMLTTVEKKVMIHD
# PROCEDURE SUMMARY: 5-HT7 Receptor Binding Assay ([3H]LSD displacement, CHO cell membranes)
# MEASUREMENT CONDITIONS: displacement of [3H]LSD; cloned human 5-HT7 receptor membranes from CHO cells; value with 95% confidence interval; read-out: 5-HT7 binding Ki

{"COMPOUND": "CN1CCN(C2=Nc3ccccc3Oc3ccc(Cl)cc32)CC1 [Loxapine, reference compound]", "Ki / nM": 43}

###

# TEST SYSTEM: human 5HT7 receptor (Homo sapiens, UniProt P34969)
# Construct: purchased BioSignal Drug Discovery Technology, Montreal, Canada; host or cells: CHO cells (stably transfected), membranes
# PROCEDURE SUMMARY: 5-HT7 Receptor Binding Assay ([3H]LSD displacement, CHO cell membranes)
pKi: −log10 of the molar value.
QUANTITY KIND: pKi

{"STRUCTURE NOTATION": "NCCc1c[nH]c2cc3c(cc12)C(=O)NCC3", "RECORDED NUMBER": 7.85}
